Each recorded value in this set is attributed to ChEMBL document CHEMBL1909549.

biological target: Prostaglandin E2 receptor EP4 subtype (Homo sapiens); assay: Antagonist activity at human EP4 receptor expressed in HEK293 cells assessed as inhibition of PGE2-induced cAMP accumulation by bead-based proximity assay; type: functional, cell-based
Sequence (P35408 whole entry): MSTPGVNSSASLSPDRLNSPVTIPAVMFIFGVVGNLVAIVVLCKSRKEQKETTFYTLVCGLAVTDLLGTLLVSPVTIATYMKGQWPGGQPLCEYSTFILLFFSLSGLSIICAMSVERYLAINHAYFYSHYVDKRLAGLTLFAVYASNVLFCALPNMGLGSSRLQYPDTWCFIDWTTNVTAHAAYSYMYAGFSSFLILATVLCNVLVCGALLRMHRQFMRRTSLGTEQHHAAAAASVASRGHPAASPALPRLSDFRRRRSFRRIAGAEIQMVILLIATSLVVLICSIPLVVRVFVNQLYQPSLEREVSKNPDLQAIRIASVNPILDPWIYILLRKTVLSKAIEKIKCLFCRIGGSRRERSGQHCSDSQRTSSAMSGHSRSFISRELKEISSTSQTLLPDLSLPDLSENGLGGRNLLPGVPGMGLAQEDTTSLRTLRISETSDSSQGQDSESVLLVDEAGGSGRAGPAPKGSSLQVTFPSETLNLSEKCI
pIC50: −log10 of the molar value.
pIC50 vs 7: at or above is label 1, below is label 0.

Please review the following examples before continuing.
{"columns": ["structure-as-smiles", "category"],
 "data": [
  ["C[C@H](NC(=O)c1cc(Cl)ccc1Oc1ccc(F)cc1)c1ccc(C(=O)O)cc1", "label 1"],
  ["C[C@H](NC(=O)c1cccc2c1Oc1cc(C(F)(F)F)ccc1CC2)c1ccc(C(=O)O)cc1", "label 1"],
  ["O=C(O)c1ccc(C2(NC(=O)c3cccc4c3Oc3ccc(C(F)(F)F)cc3CC4)CC2)cc1", "label 1"],
  ["O=C(O)c1ccc(C2(NC(=O)c3cccc4c3Oc3cc(C(F)(F)F)ccc3CC4)CC2)cc1", "label 0"]
]}

[in] Confirm if pIC50 reported for the compound `C[C@H](NC(=O)c1cccc2c1Oc1ccc(C(F)(F)F)cc1CC2)c1ccc(C(=O)O)cc1` is 7 or above.
[out] label 1
